// reported AC50 per item
# TGT: POLγA:G848S (Homo sapiens, UniProt P54098, G848S)
# Sequence (P54098 whole entry G848S): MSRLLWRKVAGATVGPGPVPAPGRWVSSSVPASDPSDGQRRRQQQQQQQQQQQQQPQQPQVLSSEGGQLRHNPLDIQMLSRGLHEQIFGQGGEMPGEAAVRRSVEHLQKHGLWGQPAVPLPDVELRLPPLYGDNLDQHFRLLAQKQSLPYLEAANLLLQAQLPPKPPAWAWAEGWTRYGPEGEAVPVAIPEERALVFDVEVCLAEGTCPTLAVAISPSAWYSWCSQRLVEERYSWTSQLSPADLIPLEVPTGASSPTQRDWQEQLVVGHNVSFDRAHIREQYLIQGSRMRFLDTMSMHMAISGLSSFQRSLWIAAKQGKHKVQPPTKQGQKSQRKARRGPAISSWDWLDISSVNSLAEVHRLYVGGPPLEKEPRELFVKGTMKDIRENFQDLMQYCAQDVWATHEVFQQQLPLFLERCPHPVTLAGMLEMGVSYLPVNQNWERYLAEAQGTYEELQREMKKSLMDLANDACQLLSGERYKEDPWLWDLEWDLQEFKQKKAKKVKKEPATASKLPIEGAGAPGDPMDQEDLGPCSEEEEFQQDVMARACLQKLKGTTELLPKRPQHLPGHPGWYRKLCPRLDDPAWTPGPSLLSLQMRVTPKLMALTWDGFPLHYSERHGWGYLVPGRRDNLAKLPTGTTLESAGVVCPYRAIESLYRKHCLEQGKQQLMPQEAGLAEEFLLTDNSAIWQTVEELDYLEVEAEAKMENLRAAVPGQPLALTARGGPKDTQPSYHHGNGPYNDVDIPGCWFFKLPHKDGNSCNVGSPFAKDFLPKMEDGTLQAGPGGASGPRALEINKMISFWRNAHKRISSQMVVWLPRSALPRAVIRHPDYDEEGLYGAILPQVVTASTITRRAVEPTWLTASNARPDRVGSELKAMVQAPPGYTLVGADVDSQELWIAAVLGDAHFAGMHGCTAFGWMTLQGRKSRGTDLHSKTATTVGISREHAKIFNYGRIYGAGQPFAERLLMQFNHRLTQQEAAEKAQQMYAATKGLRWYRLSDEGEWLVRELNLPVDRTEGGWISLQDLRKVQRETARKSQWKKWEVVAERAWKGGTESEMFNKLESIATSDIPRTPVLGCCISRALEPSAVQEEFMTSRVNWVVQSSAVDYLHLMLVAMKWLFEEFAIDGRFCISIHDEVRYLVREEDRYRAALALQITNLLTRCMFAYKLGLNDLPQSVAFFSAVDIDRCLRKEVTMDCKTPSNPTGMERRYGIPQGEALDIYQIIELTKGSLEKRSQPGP
# Sequence (Q9UHN1 whole entry partner): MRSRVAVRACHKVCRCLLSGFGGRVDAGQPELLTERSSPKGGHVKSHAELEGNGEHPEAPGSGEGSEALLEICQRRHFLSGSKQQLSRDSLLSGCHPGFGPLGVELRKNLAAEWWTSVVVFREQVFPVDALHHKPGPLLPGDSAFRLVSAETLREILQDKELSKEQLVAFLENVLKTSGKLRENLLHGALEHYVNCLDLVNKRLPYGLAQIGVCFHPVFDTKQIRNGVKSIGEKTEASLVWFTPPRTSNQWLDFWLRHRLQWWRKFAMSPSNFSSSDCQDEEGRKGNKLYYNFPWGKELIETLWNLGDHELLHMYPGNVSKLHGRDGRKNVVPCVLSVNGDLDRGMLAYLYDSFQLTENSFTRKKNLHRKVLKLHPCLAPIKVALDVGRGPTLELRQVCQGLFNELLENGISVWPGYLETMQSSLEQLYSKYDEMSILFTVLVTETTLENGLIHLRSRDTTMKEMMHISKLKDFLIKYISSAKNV
# ASSAY_PROTOCOL: DNA polymerization assay, POLγA:G848S mutant
# Type: biochemical
# MEASUREMENT_PARAMETERS: stimulation of polymerase activity, primed M13mp18 ssDNA, 37° C. 2 hours; read-out: G848S AC50

[
  {
    "COMPOUND": "Cc1cc(S(=O)(=O)Nc2cccc(C(=O)N3CCC[C@@H]3C)c2)c(C)cc1Cl",
    "VALUE_UNITS": "µM",
    "VALUE_PREFIX": "=",
    "AC50": 18
  },
  {
    "COMPOUND": "Cc1cc(-c2cccc(NS(=O)(=O)c3cc(C)c(Cl)cc3C)c2)n[nH]1",
    "VALUE_UNITS": "µM",
    "VALUE_PREFIX": "=",
    "AC50": 1
  },
  {
    "COMPOUND": "O=S(=O)(Nc1csc(-c2ccccc2)n1)c1ccccc1Cl",
    "VALUE_UNITS": "µM",
    "VALUE_PREFIX": "=",
    "AC50": 7
  },
  {
    "COMPOUND": "Cc1cc(S(=O)(=O)Nc2cccc(C(=O)N(C)C(C)CO)c2)c(C)cc1Cl (single isomer, unassigned) [Example 15]",
    "VALUE_UNITS": "µM",
    "VALUE_PREFIX": "=",
    "AC50": 30
  },
  {
    "COMPOUND": "Cc1cc(S(=O)(=O)Nc2nc(-c3ccccc3)cn2C)c(C)cc1Cl",
    "VALUE_UNITS": "µM",
    "VALUE_PREFIX": ">",
    "AC50": 100
  },
  {
    "COMPOUND": "Cc1c(Cl)cccc1S(=O)(=O)Nc1csc(-c2ccccc2)n1",
    "VALUE_UNITS": "µM",
    "VALUE_PREFIX": ">",
    "AC50": 100
  },
  {
    "COMPOUND": "Cc1cc(S(=O)(=O)Nc2cccc(-c3ncc(C(=O)N(C)C)s3)c2)c(C)cc1Cl",
    "VALUE_UNITS": "µM",
    "VALUE_PREFIX": ">",
    "AC50": 100
  },
  {
    "COMPOUND": "Cc1ccc(C)c(S(=O)(=O)Nc2cccc(C(=O)N3CCOCC3C#N)c2)c1 (centres unmarked)",
    "VALUE_UNITS": "µM",
    "VALUE_PREFIX": "=",
    "AC50": 13
  },
  {
    "COMPOUND": "Cc1cc(S(=O)(=O)Nc2cccc(C(=O)N3CCCC34CC4)c2)c(C)cc1Cl",
    "VALUE_UNITS": "µM",
    "VALUE_PREFIX": "=",
    "AC50": 13
  },
  {
    "COMPOUND": "Cc1csc(-c2cccc(NS(=O)(=O)c3cc(C)c(Cl)cc3C)c2)n1",
    "VALUE_UNITS": "µM",
    "VALUE_PREFIX": "=",
    "AC50": 2
  },
  {
    "COMPOUND": "O=S(=O)(Nc1csc(-c2ccccc2)n1)c1ccc(Cl)cc1Cl",
    "VALUE_UNITS": "µM",
    "VALUE_PREFIX": ">",
    "AC50": 100
  },
  {
    "COMPOUND": "Cc1cc(S(=O)(=O)Nc2cccc(C(=O)N3CCC[C@H]3C)c2)ccc1Cl",
    "VALUE_UNITS": "µM",
    "VALUE_PREFIX": ">",
    "AC50": 100
  },
  {
    "COMPOUND": "Cc1cc(S(=O)(=O)Nc2cccc(-c3ncc(-c4nnn[nH]4)s3)c2)c(C)cc1Cl",
    "VALUE_UNITS": "µM",
    "VALUE_PREFIX": ">",
    "AC50": 100
  },
  {
    "COMPOUND": "Cc1cc(S(=O)(=O)Nc2csc(C(=O)N3CCC[C@H]3C)n2)c(C)cc1Cl",
    "VALUE_UNITS": "µM",
    "VALUE_PREFIX": "=",
    "AC50": 0.4
  },
  {
    "COMPOUND": "Cc1cc(S(=O)(=O)N[C@H]2CCCN(C(=O)[C@H]3CCCN3C)C2)c(C)cc1Cl",
    "VALUE_UNITS": "µM",
    "VALUE_PREFIX": ">",
    "AC50": 100
  },
  {
    "COMPOUND": "Cc1cc(S(=O)(=O)Nc2cccc(C(=O)N3CCC[C@H]3C)c2F)c(C)cc1Cl",
    "VALUE_UNITS": "µM",
    "VALUE_PREFIX": ">",
    "AC50": 100
  },
  {
    "COMPOUND": "Cc1cnc(-c2cccc(S(=O)(=O)Nc3cc(C)c(Cl)cc3C)c2)s1",
    "VALUE_UNITS": "µM",
    "VALUE_PREFIX": ">",
    "AC50": 10
  }
]
